# Test system: Schizosaccharomyces pombe
# procedure text: Antifungal activity against Schizosaccharomyces pombe after 24 hrs
# Assay type: functional
measured property: MIC (µg/mL)

smiles string | endpoint unit | MIC
CCCCCCCC[n+]1c(C)sc2ccccc21.[Br-] | µg/mL | 62.5
CC1=[N+](Cc2ccccc2)c2ccccc2C1(C)C.[Br-] | µg/mL | 1000
CCCCCCC[n+]1c(C)sc2ccccc21.[Br-] | µg/mL | 125

(1) CCCCC[N+]1=C(C)C(C)(C)c2ccccc21.[I-]
(2) Cc1sc2ccccc2[n+]1C.[I-]
(3) CC1=Nc2ccccc2C1(C)C
(4) Cc1sc2ccccc2[n+]1CCCS(=O)(=O)[O-]
Prompt: Place the items in sequence of falling MIC. The labels, placed in the requested order, form the answer.
Completion: 4, 2, 3, 1
(4: 1000 µg/mL, 2: 500 µg/mL, 3: 250 µg/mL, 1: 125 µg/mL)

* * *

# procedure text: Lipophilicity, log P of the compound
# Assay type: physicochemical
# condition set: octanol/water; read-out: logP
measured property: logP

// below: answered compounds
smiles string | experimental value
CCCCCCC[N+]1=C(C)C(C)(C)c2ccccc21.[I-] | 2.26
CCC[N+]1=C(C)C(C)(C)c2ccccc21.[I-] | 0.188
CCCCC[N+]1=C(C)C(C)(C)c2ccccc21.[I-] | 1.25
CC[n+]1c(C)sc2ccccc21.[I-] | -0.701
CCCC[N+]1=C(C)C(C)(C)c2ccccc21.[I-] | 0.747
CCCCCCC[n+]1c(C)sc2ccccc21.[Br-] | 1.88

(P) CCCCCCCC[n+]1c(C)sc2ccccc21.[Br-]
(Q) CCCC[n+]1c(C)sc2ccccc21.[Br-]
(R) Cc1sc2ccccc2[n+]1C.[I-]
(S) CC[N+]1=C(C)C(C)(C)c2ccccc21.[I-]
(T) CC1=[N+](C)c2ccccc2C1(C)C.[I-]
Prompt: Order the records by logP, with each subsequent value no larger than the one before. Answer by writing out the labels in the requested order.
Completion: P, Q, S, T, R
(P: 2.38, Q: 0.36, S: -0.315, T: -0.691, R: -1.08)

(1) CCC[n+]1c(C)sc2ccccc21.[I-]
(2) CCCCCCCCCC[N+]1=C(C)C(C)(C)c2ccccc21.[I-]
Prompt: Lowest logP? choose 1 or 2 Select an item and report its label.
Completion: 1
(1: -0.199, 2: 3.78)

(A) CCCCCCCC[N+]1=C(C)C(C)(C)c2ccccc21.[I-]
(B) CCCCCC[n+]1c(C)sc2ccccc21.[Br-]
(C) Cc1sc2ccccc2[n+]1Cc1ccccc1.[Br-]
(D) CC1=[N+](Cc2ccccc2)c2ccccc2C1(C)C.[Br-]
Prompt: Ascending by logP, please. // list labels; follow requested order
Completion: C, D, B, A
(C: 0.517, D: 0.904, B: 1.37, A: 2.77)

(1) CCCCCCCCCC[n+]1c(C)sc2ccccc21.[Br-]
(2) Cc1nc2ccccc2s1
Prompt: Could you check which of 1 and 2 has a smaller value for logP? Write down the label attached to your selection.
Completion: 2

(P) CCCCCCCCC[n+]1c(C)sc2ccccc21.[Br-]
(Q) CCCCCC[N+]1=C(C)C(C)(C)c2ccccc21.[I-]
Prompt: Looking only at measured logP, which entry is lower, P or Q ? // output: label of the selected item
Completion: Q

(I) CC1=Nc2ccccc2C1(C)C
(II) CCCCC[n+]1c(C)sc2ccccc21.[Br-]
Prompt: Input pair: I , II . Output: entry with lower logP. // caller expects the label of the chosen entry
Completion: II
(II: 1.25, I: 3.29)

* * *

# procedure text: Lipophilicity, log P of the compound
# Format: physicochemical
# condition set: octanol/water
measured property: logP

smiles string | logP
Cc1sc2ccccc2[n+]1CCCS(=O)(=O)[O-] | -4.576
CC1=[N+](CCCCS(=O)(=O)[O-])c2ccccc2C1(C)C | -4.114
Cc1sc2ccccc2[n+]1CCCCS(=O)(=O)[O-] | -4.411
CC1=[N+](CCCS(=O)(=O)[O-])c2ccccc2C1(C)C | -4.33

* * *

# Test system: Schizosaccharomyces pombe
# procedure text: Antifungal activity against Schizosaccharomyces pombe after 24 hrs
# Format: functional
measured property: MIC (µg/mL)

Would you please look over these solved cases?
molecule | measured property | experimental value
CCCCCCCCCC[n+]1c(C)sc2ccccc21.[Br-] | MIC | 7.8
CCCCCCCC[N+]1=C(C)C(C)(C)c2ccccc21.[I-] | MIC | 62.5

(I) CCC[n+]1c(C)sc2ccccc21.[I-]
(II) CCCCCCCCC[N+]1=C(C)C(C)(C)c2ccccc21.[I-]
Prompt: Which value of MIC is smaller, the one for I or the one for II ? // return label of chosen record
Completion: II

* * *

# Test system: Schizosaccharomyces pombe
# procedure text: Antifungal activity against Schizosaccharomyces pombe after 24 hrs
# Format: functional
measured property: MIC (µg/mL)

smiles string | assayed target | experimental value
C[C@@H]1[C@H](O)[C@@H](C)/C=C/C=C/C=C/C=C/C=C/C=C/C=C/[C@H](O[C@@H]2O[C@H](C)[C@@H](O)[C@H](N)[C@@H]2O)C[C@@H]2O[C@](O)(C[C@@H](O)C[C@@H](O)[C@H](O)CC[C@@H](O)C[C@@H](O)CC(=O)O[C@H]1C)C[C@H](O)[C@H]2C(=O)O | Schizosaccharomyces pombe | 0.49

(I) Cc1sc2ccccc2[n+]1CCCCS(=O)(=O)[O-]
(II) CCCCCC[N+]1=C(C)C(C)(C)c2ccccc21.[I-]
Prompt: Which item exceeds the other in MIC, I or II ? Identify your selection by its label.
Completion: I
(I: 1000 µg/mL, II: 125 µg/mL)

* * *

# Test system: Schizosaccharomyces pombe
# procedure text: Antifungal activity against Schizosaccharomyces pombe after 24 hrs
# Type: functional
measured property: MIC (µg/mL)

smiles string | measured property | endpoint unit | experimental value
Cc1sc2ccccc2[n+]1Cc1ccccc1.[Br-] | MIC | µg/mL | 1000
CCCCC[n+]1c(C)sc2ccccc21.[Br-] | MIC | µg/mL | 250
CCCC[n+]1c(C)sc2ccccc21.[Br-] | MIC | µg/mL | 250
CCC[N+]1=C(C)C(C)(C)c2ccccc21.[I-] | MIC | µg/mL | 250

(P) CCCCCC[n+]1c(C)sc2ccccc21.[Br-]
(Q) CCCCCCC[N+]1=C(C)C(C)(C)c2ccccc21.[I-]
Prompt: // which entry reports the smaller MIC, P or Q ? # reply format: chosen label
Completion: Q

* * *

# System: Schizosaccharomyces pombe
# procedure text: Antifungal activity against Schizosaccharomyces pombe after 24 hrs
# Type: functional
measured property: MIC (µg/mL)

compound | MIC, µg/mL
CC[n+]1c(C)sc2ccccc21.[I-] | 250
CCCCCCCCC[n+]1c(C)sc2ccccc21.[Br-] | 31.3
CC1=[N+](CCCS(=O)(=O)[O-])c2ccccc2C1(C)C | 1000

(P) Cc1nc2ccccc2s1
(Q) CC1=[N+](C)c2ccccc2C1(C)C.[I-]
Prompt: Please tell me which of the two, P or Q , has the higher reported MIC value. # reply format: chosen label
Completion: Q
(Q: 500 µg/mL, P: 250 µg/mL)

* * *

# Tested on: Schizosaccharomyces pombe
# procedure text: Antifungal activity against Schizosaccharomyces pombe after 24 hrs
# Assay type: functional
measured property: MIC (µg/mL)

smiles string | experimental value
CCCC[N+]1=C(C)C(C)(C)c2ccccc21.[I-] | 250

(A) c1ccc2[nH]c(-c3cscn3)nc2c1
(B) CC1=[N+](CCCCS(=O)(=O)[O-])c2ccccc2C1(C)C
(C) CCCCCCCCCC[N+]1=C(C)C(C)(C)c2ccccc21.[I-]
(D) CC[N+]1=C(C)C(C)(C)c2ccccc21.[I-]
Prompt: Endpoint returns the given compounds ordered by ascending MIC. Provide the labels, sequenced as the question asks.
Completion: C, A, D, B
(C: 15.6 µg/mL, A: 31.2 µg/mL, D: 500 µg/mL, B: 1000 µg/mL)
